Reported values of Major metabolites observed in cellular extracts (% of total radioactivity) for individual entries
- System: rat primary hepatocytes
- Assay explanation: Metabolic disposition of [^14C]-Compound 1 and [^14C]-2′-C-methyl guanosine in rat primary hepatocytes (incubation medium, cellular extracts, nucleotide levels)
- Type: in vitro ADME, Sprague Dawley rat
- Experimental context: rat hepatocytes Rs458; 10 μM [^14C]-2′-C-methyl guanosine; 24 h

Use the examples below as a reference point.
- Molecule: "C[C@@]1(O)[C@H](O)[C@@H](COP(=O)(O)OP(=O)(O)OP(=O)(O)O)O[C@H]1n1cnc2c(=O)[nH]c(N)nc21"
  Measured: "33.9 % of total radioactivity"
- Molecule: "C[C@@]1(O)[C@H](O)[C@@H](COP(=O)(O)OP(=O)(O)O)O[C@H]1n1cnc2c(=O)[nH]c(N)nc21"
  Measured: "9.65 % of total radioactivity"
- Molecule: "C[C@@]1(O)[C@H](O)[C@@H](CO)O[C@H]1n1cnc2c(=O)[nH]c(N)nc21 [2′-C-methyl guanosine, 9-(2-C-methyl-β-D-ribofuranosyl)guanine, reference compound]"
  Measured: "47.1 % of total radioactivity"

Now for a further molecule.
Please report Major metabolites observed in cellular extracts (% of total radioactivity) for the following molecule: C[C@@]1(O)[C@H](O)[C@@H](COP(=O)(O)O)O[C@H]1n1cnc2c(=O)[nH]c(N)nc21
9.39 % of total radioactivity

---

- Tested on: rat primary hepatocytes
- Assay explanation: Metabolic disposition of [^14C]-Compound 1 and [^14C]-2′-C-methyl guanosine in rat primary hepatocytes (incubation medium, cellular extracts, nucleotide levels)
- Assay type: in vitro ADME, Sprague Dawley rat
- Experimental context: rat hepatocytes (Rs458), 1 μM [^14C]-Compound 1, 24 h
Attribute measured: metabolites observed in cellular extracts (% of total radioactivity) (%)

Use the examples below as a reference point.
- Compound: "C[C@@]1(O)[C@H](O)[C@@H](COP(=O)(O)O)O[C@H]1n1cnc2c(=O)[nH]c(N)nc21"
  Target: "rat primary hepatocytes"
  Measured: 6.68
- Compound: "C[C@@]1(O)[C@H](O)[C@@H](CO)O[C@H]1n1cnc2c(=O)[nH]c(N)nc21 [2′-C-methyl guanosine, 9-(2-C-methyl-β-D-ribofuranosyl)guanine, reference compound]"
  Target: "rat primary hepatocytes"
  Measured: 13.1

a. C[C@@]1(O)[C@H](O)[C@@H](COP(=O)(O)OP(=O)(O)OP(=O)(O)O)O[C@H]1n1cnc2c(=O)[nH]c(N)nc21
b. C[C@@]1(O)[C@H](O)[C@@H](COP(=O)(O)OP(=O)(O)O)O[C@H]1n1cnc2c(=O)[nH]c(N)nc21
Which gives the smaller metabolites observed in cellular extracts (% of total radioactivity) number: a or b ? Your answer should be the label attached to the chosen record.
b

---

- System: monkey primary hepatocytes
- Assay explanation: Metabolic disposition of [^14C]-Compound 1 and [^14C]-2′-C-methyl guanosine in monkey primary hepatocytes (incubation medium, cellular extracts, nucleotide levels)
- Format: in vitro ADME, Cynomolgus monkey
- Experimental context: monkey hepatocytes Cy234; 10 μM [^14C]-2′-C-methyl guanosine; 24 h
Reported values of Major metabolites observed in cellular extracts (% of total radioactivity) for individual entries

Use the examples below as a reference point.
- Compound: "C[C@@]1(O)[C@H](O)[C@@H](COP(=O)(O)OP(=O)(O)O)O[C@H]1n1cnc2c(=O)[nH]c(N)nc21"
  Measured: "14.1 % of total radioactivity"
- Compound: "C[C@@]1(O)[C@H](O)[C@@H](COP(=O)(O)OP(=O)(O)OP(=O)(O)O)O[C@H]1n1cnc2c(=O)[nH]c(N)nc21"
  Measured: "51.8 % of total radioactivity"
- Compound: "C[C@@]1(O)[C@H](O)[C@@H](COP(=O)(O)O)O[C@H]1n1cnc2c(=O)[nH]c(N)nc21"
  Measured: "5.03 % of total radioactivity"

Now for a further compound.
Retrieve Major metabolites observed in cellular extracts (% of total radioactivity) on monkey primary hepatocytes; query C[C@@]1(O)[C@H](O)[C@@H](CO)O[C@H]1n1cnc2c(=O)[nH]c(N)nc21 [2′-C-methyl guanosine, 9-(2-C-methyl-β-D-ribofuranosyl)guanine, reference compound]
29.0 % of total radioactivity
